Reported values of Minimum inhibitory concentration for individual entries
tested on: clinical strains of Acinetobacter baumannii; assay: MIC, microdilution, clinical strains; format: cell-based; set-up: unit: μg/ml; conditions: Acinetobacter baumannii strain 4, Muller Hinton broth-cation adjusted, 0.02% BSA, 0.2% acetic acid
Where a SMILES comes first, the peptide text is derived from it. [ ]: non-standard residue; d: D form.
API note: the answer field is a bare number with no unit suffix.

Some solved cases for reference:
MOLECULE | Minimum inhibitory concentration
CC[C@@H](C)[C@@H](NC(=O)[C@@H](Cc1c[nH]c2ccccc12)NC(=O)[C@H](N)CCCCN)C(=O)N[C@@H](C(=O)N[C@H](Cc1c[nH]c2ccccc12)C(=O)N[C@H](CCCNC(=N)N)C(=O)N[C@H](Cc1c[nH]c2ccccc12)C(=O)N[C@H](CCCNC(=N)N)C(=O)N[C@H](Cc1ccccc1)C(=O)N[C@H](CCCCN)C(=O)N[C@H](CCCNC(=N)N)C(=O)O)C(C)C [Chain201D] (H-[dK][dW][dI][dV][dW][dR][dW][dR][dF][dK][dR]-OH) | 4
CC(C)C[C@@H](NC(=O)[C@H](N)CCCNC(=N)N)C(=O)N[C@H](CCCCN)C(=O)N[C@H](CCCNC(=N)N)C(=O)N[C@H](Cc1c[nH]c2ccccc12)C(=O)N[C@H](CCCNC(=N)N)C(=O)N[C@H](CC(C)C)C(=O)N[C@H](Cc1ccccc1)C(=O)N[C@H](CCCNC(=N)N)C(=O)N[C@H](CCCCN)C(=O)N[C@H](CCCNC(=N)N)C(=O)O [Chain306D] (H-[dR][dL][dK][dR][dW][dR][dL][dF][dR][dK][dR]-OH) | 16
CC[C@@H](C)[C@@H](NC(=O)[C@@H](CC(C)C)NC(=O)[C@@H](CCCNC(=N)N)NC(=O)[C@H](N)CCCNC(=N)N)C(=O)N[C@H](Cc1c[nH]c2ccccc12)C(=O)N[C@H](CCCNC(=N)N)C(=O)N[C@H](CCCNC(=N)N)C(=O)N[C@H](Cc1ccccc1)C(=O)N[C@H](CCCCN)C(=O)N[C@H](Cc1c[nH]c2ccccc12)C(=O)N[C@H](CC(C)C)C(=O)N[C@H](CCCNC(=N)N)C(=O)O [Chain204D] (H-[dR][dR][dL][dI][dW][dR][dR][dF][dK][dW][dL][dR]-OH) | 4

Consider the record given below.
Query: Would you kindly share the measured Minimum inhibitory concentration for CC(C)C[C@@H](NC(=O)[C@H](N)CCCNC(=N)N)C(=O)N[C@H](CCCCN)C(=O)N[C@H](Cc1c[nH]c2ccccc12)C(=O)N[C@H](Cc1ccccc1)C(=O)N[C@H](CC(C)C)C(=O)N[C@H](CC(C)C)C(=O)N[C@H](Cc1ccccc1)C(=O)N[C@H](CCCNC(=N)N)C(=O)N[C@H](CCCCN)C(=O)N[C@H](CCCNC(=N)N)C(=O)O [Chain308D] (H-[dR][dL][dK][dW][dF][dL][dL][dF][dR][dK][dR]-OH) ?
Response: 2

----------
tested on: C. parapsilosis; assay: MIC, clinical yeast strains; format: cell-based; conditions: C. parapsilosis clinical yeast strain 1
Where a SMILES comes first, the peptide text is derived from it. [ ]: non-standard residue; d: D form.
Reported values of Minimum inhibitory concentration for individual entries
API note: the answer field is a bare number with no unit suffix.

COMPOUND | READOUT_NAME | NUMERIC_VALUE
CC(C)C[C@@H](NC(=O)[C@@H](CCCCN)NC(=O)[C@@H](CCCCN)NC(=O)[C@@H](Cc1ccccc1)NC(=O)[C@@H](CC(C)C)NC(=O)[C@@H](Cc1c[nH]c2ccccc12)NC(=O)[C@@H](CCCNC(=N)N)NC(=O)[C@@H](Cc1c[nH]c2ccccc12)NC(=O)[C@@H](CCCCN)NC(=O)[C@@H](CCCNC(=N)N)NC(=O)[C@H](N)CCCCN)C(=O)O [Chain310D] (H-[dK][dR][dK][dW][dR][dW][dL][dF][dK][dK][dL]-OH) | Minimum inhibitory concentration | 64

Consider the record given below.
Query: Would you kindly share the measured Minimum inhibitory concentration for CC[C@@H](C)[C@@H](N)C(=O)N[C@H](Cc1c[nH]c2ccccc12)C(=O)N[C@H](CCCCN)C(=O)N[C@H](CCCNC(=N)N)C(=O)N[C@H](Cc1ccccc1)C(=O)N[C@H](CCCNC(=N)N)C(=O)N[C@H](CC(C)C)C(=O)N[C@H](Cc1ccccc1)C(=O)N[C@H](CCCCN)C(=O)N[C@H](CCCCN)C(=O)N[C@H](Cc1c[nH]c2ccccc12)C(=O)O [Chain304D] (H-[dI][dW][dK][dR][dF][dR][dL][dF][dK][dK][dW]-OH) ?
Response: 64

----------
test system: Candida albicans; experiment: MIC, clinical yeast strains; type: cell-based; conditions: Candida albicans clinical yeast strain 4
Where a SMILES comes first, the peptide text is derived from it. [ ]: non-standard residue; d: D form.
READOUT_NAME: Minimum inhibitory concentration
API note: the answer field is a bare number with no unit suffix.

MOLECULE | Minimum inhibitory concentration
CC(C)C[C@@H](NC(=O)[C@H](N)CCCCN)C(=O)N[C@H](CCCCN)C(=O)N[C@H](Cc1c[nH]c2ccccc12)C(=O)N[C@H](Cc1ccccc1)C(=O)N[C@H](Cc1c[nH]c2ccccc12)C(=O)N[C@H](CC(C)C)C(=O)N[C@H](Cc1ccccc1)C(=O)N[C@H](CCCCN)C(=O)N[C@H](CCCCN)C(=O)N[C@H](CCCNC(=N)N)C(=O)O [Chain311D] (H-[dK][dL][dK][dW][dF][dW][dL][dF][dK][dK][dR]-OH) | 16
CC(C)C[C@@H](NC(=O)[C@@H](Cc1c[nH]c2ccccc12)NC(=O)[C@@H](Cc1ccccc1)NC(=O)[C@@H](Cc1c[nH]c2ccccc12)NC(=O)[C@@H](CCCCN)NC(=O)[C@@H](CCCNC(=N)N)NC(=O)[C@H](N)Cc1c[nH]c2ccccc12)C(=O)N[C@H](Cc1ccccc1)C(=O)N[C@H](CCCCN)C(=O)N[C@H](CCCCN)C(=O)N[C@H](CCCNC(=N)N)C(=O)O [Chain309D] (H-[dW][dR][dK][dW][dF][dW][dL][dF][dK][dK][dR]-OH) | 16

Query: Would you kindly share the measured Minimum inhibitory concentration for `C[C@@H]1[C@H](O)[C@@H](C)/C=C/C=C/C=C/C=C/C=C/C=C/C=C/[C@H](O[C@@H]2O[C@H](C)[C@@H](O)[C@H](N)[C@@H]2O)C[C@@H]2O[C@](O)(C[C@@H](O)C[C@@H](O)[C@H](O)CC[C@@H](O)C[C@@H](O)CC(=O)O[C@H]1C)C[C@H](O)[C@H]2C(=O)O` ?
Response: 2

----------
tested on: C. parapsilosis; experiment: MIC, clinical yeast strains; format: cell-based; details: C. parapsilosis clinical yeast strain 1
Where a SMILES comes first, the peptide text is derived from it. [ ]: non-standard residue; d: D form.
Reported values of Minimum inhibitory concentration for individual entries
API note: the answer field is a bare number with no unit suffix.

Some solved cases for reference:
MOLECULE | SYSTEM | Minimum inhibitory concentration
CC(C)C[C@@H](NC(=O)[C@H](N)CCCNC(=N)N)C(=O)N[C@H](CCCCN)C(=O)N[C@H](Cc1c[nH]c2ccccc12)C(=O)N[C@H](Cc1ccccc1)C(=O)N[C@H](CC(C)C)C(=O)N[C@H](CC(C)C)C(=O)N[C@H](Cc1ccccc1)C(=O)N[C@H](CCCNC(=N)N)C(=O)N[C@H](CCCCN)C(=O)N[C@H](CCCNC(=N)N)C(=O)O [Chain308D] (H-[dR][dL][dK][dW][dF][dL][dL][dF][dR][dK][dR]-OH) | C. parapsilosis | 8
C[C@@H]1[C@H](O)[C@@H](C)/C=C/C=C/C=C/C=C/C=C/C=C/C=C/[C@H](O[C@@H]2O[C@H](C)[C@@H](O)[C@H](N)[C@@H]2O)C[C@@H]2O[C@](O)(C[C@@H](O)C[C@@H](O)[C@H](O)CC[C@@H](O)C[C@@H](O)CC(=O)O[C@H]1C)C[C@H](O)[C@H]2C(=O)O | C. parapsilosis | 2
CC(C)C[C@@H](NC(=O)[C@H](N)CCCNC(=N)N)C(=O)N[C@H](CCCCN)C(=O)N[C@H](CCCNC(=N)N)C(=O)N[C@H](Cc1c[nH]c2ccccc12)C(=O)N[C@H](CCCNC(=N)N)C(=O)N[C@H](CC(C)C)C(=O)N[C@H](Cc1ccccc1)C(=O)N[C@H](CCCNC(=N)N)C(=O)N[C@H](CCCCN)C(=O)N[C@H](CCCNC(=N)N)C(=O)O [Chain306D] (H-[dR][dL][dK][dR][dW][dR][dL][dF][dR][dK][dR]-OH) | C. parapsilosis | 8

Consider the record given below.
Query: Give Minimum inhibitory concentration (C. parapsilosis) of the following molecule: CC(C)C[C@@H](NC(=O)[C@@H](Cc1c[nH]c2ccccc12)NC(=O)[C@@H](Cc1ccccc1)NC(=O)[C@@H](Cc1c[nH]c2ccccc12)NC(=O)[C@@H](CCCCN)NC(=O)[C@@H](CCCNC(=N)N)NC(=O)[C@H](N)Cc1c[nH]c2ccccc12)C(=O)N[C@H](Cc1ccccc1)C(=O)N[C@H](CCCCN)C(=O)N[C@H](CCCCN)C(=O)N[C@H](CCCNC(=N)N)C(=O)O [Chain309D] (H-[dW][dR][dK][dW][dF][dW][dL][dF][dK][dK][dR]-OH)
Response: 64
